- Target Entity: T1, recombinant mature human GDF15 dimer, N-glyco-engineered variant (R198N and G200T), Twin-Strep tagged (human, UniProt Q99988 198-308, R198N | G200T)
- T1 construct: mature human GDF15, residues 198–308, N-glyco-engineered variant (R198N and G200T); no cleavage step is described (eluted with desthiobiotin, then SEC); also called Twin-Strep-GDF15 dimer; growth differentiation factor-15; source: Expi293F, transfected, purified from supernatant (Strep-Tactin-XT, SEC)
- T1 sequence (looked up): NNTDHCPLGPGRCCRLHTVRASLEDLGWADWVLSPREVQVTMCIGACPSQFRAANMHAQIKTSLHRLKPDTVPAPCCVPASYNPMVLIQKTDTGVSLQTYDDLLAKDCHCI
- Assay Remarks: SPR; Biacore T200; GDF15 dimer immobilised on CM5 chip by amine coupling; HBS-EP+; analyte 5-50 nM in the figure; 1:1 binding model; apparent (avidity of the Fc dimer)
- Condition Parameters: both partners purified
Test Readout: Kd (nM)
Express the result in nM but write the number alone.

Would you kindly share the measured Kd for SGA2-4-Fc (Fc-fused SGA2-4 binder, homodimeric decoy receptor) (Fc fusion, Homodimer through a C-terminal human IgG Fc (isotype and limits not given). The Fc, thrombin site and 6xHis tag are left out; the Fc only provides bivalency/avidity. Expressed in mammalian cells.) VTVFEALDAIIADPQSNAALAAHLKAVAALPADATKAQVDAIYDAFLAQLPAEVRAKVLAAKPDPTNPDEIQLYNQLRGYDKL ?
0.081
